Test system: NOMO1
measurement-protocol: cell viability relative to DMSO control; higher = less cytotoxic
measurement-context: RPMI 5 mM glucose + 10% FBS; 48 h; 0.19 µM
readout: cell viability (%)

INSERT INTO assay_data (molecule, system_under_test, value_measured) VALUES
  ('C[C@H](NC(=O)[C@@H](O)c1cc(F)cc(F)c1)C(=O)N[C@@H]1C(=O)N(C)c2ccccc2-c2ccccc21', 'NOMO1', 114),
  ('Cc1n[nH]c2ccc(-c3cncc(OC[C@@H](N)Cc4ccccc4)c3)cc12', 'NOMO1', 113),
  ('CO[C@H]1C[C@@H]2CC[C@@H](C)[C@@](O)(O2)C(=O)C(=O)N2CCCC[C@H]2C(=O)O[C@H]([C@@H](C)C[C@@H]2CC[C@@H](O)[C@H](OC)C2)CC(=O)[C@H](C)/C=C(\C)[C@@H](O)[C@@H](OC)C(=O)[C@H](C)C[C@H](C)/C=C/C=C/C=C/1C', 'NOMO1', 109),
  ('Cc1nnc(C(C)C)n1[C@@H]1C[C@H]2CC[C@@H](C1)N2CC[C@H](NC(=O)C1CCC(F)(F)CC1)c1ccccc1', 'NOMO1', 99.9),
  ('CCC(=O)O[C@@]1(CC[C@H]2[C@@H]3CCC/4=C/C(=O)CC[C@]4(C)[C@H]3CC[C@]12C)C(=O)CO', 'NOMO1', 118),
  ('NC[C@H](O)c1ccc(O)c(O)c1', 'NOMO1', 91),
  ('CCC(=O)N1CCN(CC1)C2=C(C=C(C=C2)N3C(=O)\C=C/C4=C3C5=CC(=CC=C5N=C4)C6=CN=C7C=CC=CC7=C6)C(F)(F)F', 'NOMO1', 79),
  ('O=C(NOCC1CC1)c1ccc(F)c(F)c1Nc1ccc(I)cc1Cl', 'NOMO1', 93.8),
  ('CN(CC(=O)N(Cc1ccc(C2CCCCC2)cc1)c1ccc(C(=O)O)c(O)c1)[S+](=O)([O-])c1c(F)c(F)c(F)c(F)c1F', 'NOMO1', 88.6),
  ('O=C(O)c1cccc(-c2noc(-c3ccccc3F)n2)c1', 'NOMO1', 98),
  ('C[C@@H]1CC[C@@]2(CC[C@]3(C)\C(=C/C[C@@H]4[C@@]5(C)C[C@@H](O)[C@H](O)[C@@](C)(CO)[C@@H]5CC[C@@]34C)[C@@H]2[C@H]1C)C(O)=O', 'NOMO1', 104),
  ('Cc1nc2ccc(CN(C)c3ccc(C(=O)N[C@@H](CCC(=O)O)C(=O)O)s3)cc2c(=O)[nH]1', 'NOMO1', 114),
  ('CN1CCN(CC1)C2=CC3=C([NH]C(=N3)C/4=C(\N)C5=C(F)C=CC=C5NC4=O)C=C2', 'NOMO1', 109),
  ('C[S+](=O)([O-])N1CCN(Cc2cc3nc(-c4cccc5[nH]ncc45)nc(N4CCOCC4)c3s2)CC1', 'NOMO1', 133),
  ('COC(=O)CCC1=C(C)C2=CC3=NC(=CC4=C(C)C(=C([NH]4)C=C\5N=C(C=C1[NH]2)\C(=C5C)CCC(O)=O)C=C)\C6=C\C=C(/[C@@H](C(=O)OC)[C@@]36C)C(=O)OC', 'NOMO1', 109),
  ('CCC(=O)NC[C@H](Cc1ccc(OCCc2nc(-c3ccccc3)oc2C)cc1)N/C(C)=C\C(=O)c1ccc(C(F)(F)F)cc1', 'NOMO1', 112),
  ('CC1=CC/2=C(C=C1C)N(C[C@@H](O)[C@@H](O)[C@@H](O)CO)C/3=N/C(=O)NC(=O)C3=N2', 'NOMO1', 117),
  ('OC1=C(Cl)C=C(N\C2=C(\C(=O)NC2=O)C3=C(C=CC=C3)[N+]([O-])=O)C=C1', 'NOMO1', 95.9),
  ('COc1cc(N2CCC(N3CCN(C)CC3)CC2)ccc1Nc1ncc(Cl)c(Nc2ccccc2[S+](=O)([O-])C(C)C)n1', 'NOMO1', 134),
  ('COCC(=O)NC/C=C/c1ccc2ncnc(Nc3ccc(Oc4ccc(C)nc4)c(C)c3)c2c1', 'NOMO1', 81.3),
  ('c1coc(CNc2ncnc3nc[nH]c23)c1', 'NOMO1', 119),
  ('O=C1c2ccccc2-c2n[nH]c3cccc1c23', 'NOMO1', 127),
  ('CNC(=O)c1nn(C)c2c1C(C)(C)Cc1cnc(Nc3ccc(N4CCN(C)CC4)cc3)nc1-2', 'NOMO1', 111),
  ('CN(C)C(=O)[C@H](O)[C@H](Cc1ccccc1)NC(=O)c1cc2cc(Cl)ccc2[nH]1', 'NOMO1', 126),
  ('CC(=O)OCC(=O)[C@@]1(O)CC[C@H]2[C@@H]3CCC/4=C/C(=O)/C=C\[C@]4(C)[C@H]3[C@@H](O)C[C@]12C', 'NOMO1', 119),
  ('CCN1\C=C(C(O)=O)/C(=O)C2=C1C(=C(N3CCNC(C)C3)C(=C2)F)F (centres undefined)', 'NOMO1', 107),
  ('O=C(Nc1ccccc1)Nc1ccc(-c2ccc(C(=O)[C@@H]3CCC[C@H]3C(=O)O)cc2)cc1', 'NOMO1', 97.7),
  ('Clc1ccc(C(c2ccc(Cl)cc2)[n+]2ccn(CC(OCc3ccc(Cl)cc3Cl)c3ccc(Cl)cc3Cl)c2)cc1 (centres undefined)', 'NOMO1', 113),
  ('COc1c(N2C[C@@H]3CCCN[C@@H]3C2)c(F)cc2c(=O)c(C(=O)O)cn(C3CC3)c12.Cl.O', 'NOMO1', 93.8);

====

System: NOMO1
measurement-protocol: cell viability relative to DMSO control; higher = less cytotoxic
measurement-context: RPMI 5 mM glucose + 10% FBS; 48 h; 5.12 µM
List of cell viability values.
readout: cell viability (%)

INSERT INTO results (compound, system_under_test, value_measured) VALUES
  ('Cc1nc2ccc(CN(C)c3ccc(C(=O)N[C@@H](CCC(=O)O)C(=O)O)s3)cc2c(=O)[nH]1', 'NOMO1', 71.8),
  ('C=C1CCC2[C@](C)(CO)C(O)CC[C@]2(C)C1C/C=C1/C(=O)OCC1O (some centres not stated)', 'NOMO1', 97.5),
  ('Nc1nccc(-c2ccc3noc(-c4ccc(Cl)cc4)c3c2)n1', 'NOMO1', 108),
  ('NC(=O)c1nnn(Cc2cc(Cl)c(C(=O)c3ccc(Cl)cc3)c(Cl)c2)c1N', 'NOMO1', 110),
  ('O=C(Nc1cccnc1)N1CCC(Cc2cccc(Oc3ccc(C(F)(F)F)cn3)c2)CC1', 'NOMO1', 108),
  ('CC1=CC/2=C(C=C1C)N(C[C@@H](O)[C@@H](O)[C@@H](O)CO)C/3=N/C(=O)NC(=O)C3=N2', 'NOMO1', 108),
  ('Nc1ncnc2nc(-c3ccc(N4CCOCC4)nc3)cc(-c3cccc(Br)c3)c12', 'NOMO1', 114);

====

Test system: P12-Ichikawa
measurement-protocol: cell viability relative to DMSO control; higher = less cytotoxic
measurement-context: RPMI 5 mM glucose + 10% FBS; 48 h; 0.0632 µM
List of cell viability values.
readout: cell viability (%)

INSERT INTO assay_data (smiles_code, readout, value_measured) VALUES
  ('COCC(=O)NC/C=C/c1ccc2ncnc(Nc3ccc(Oc4ccc(C)nc4)c(C)c3)c2c1', 'cell viability', 105),
  ('C[C@@H]1CC[C@@]2(CC[C@]3(C)\C(=C/C[C@@H]4[C@@]5(C)C[C@@H](O)[C@H](O)[C@@](C)(CO)[C@@H]5CC[C@@]34C)[C@@H]2[C@H]1C)C(O)=O', 'cell viability', 119),
  ('NC(=O)N1CCC(CC(=O)N2CCC([C@H]3c4ncc(Br)cc4CCc4cc(Cl)cc(Br)c43)CC2)CC1', 'cell viability', 117),
  ('COc1ccc(-n2c(C)c([N+](=O)[O-])c3ccc(O)cc32)cc1', 'cell viability', 118),
  ('COc1ccc(/C=C/C(=O)Nc2ccccc2C(=O)O)cc1OC', 'cell viability', 113),
  ('CCOc1ccccc1N/N=C1/C(=O)N(c2nc(-c3ccccc3)cs2)N=C1C', 'cell viability', 116),
  ('CC1(C)CCC(C)(C)c2cc(NC(=O)c3ccc(C(=O)O)cc3)ccc21', 'cell viability', 103),
  ('CCc1nc(N)nc(N)c1-c1ccc(Cl)cc1', 'cell viability', 107);

====

List of cell viability values.
Test system: NOMO1
measurement-protocol: cell viability relative to DMSO control; higher = less cytotoxic
measurement-context: HPLM + 10% dialyzed FBS; 48 h; 0.0211 µM
readout: cell viability (%)

INSERT INTO measurements (compound, readout_units, value_measured) VALUES
  ('c1cc2c(cc1[C@H]1OC[C@H]3[C@@H]1CO[C@@H]3c1ccc3c(c1)OCO3)OCO2', '%', 112),
  ('CC1=CC/2=C(C=C1C)N(C[C@@H](O)[C@@H](O)[C@@H](O)CO)C/3=N/C(=O)NC(=O)C3=N2', '%', 115),
  ('COc1c(N2C[C@@H]3CCCN[C@@H]3C2)c(F)cc2c(=O)c(C(=O)O)cn(C3CC3)c12.Cl.O', '%', 104),
  ('CCCC[S+](=N)([O-])CCC(N)C(=O)O (centres undefined)', '%', 138),
  ('COCCCC/C(=N\OCCN)c1ccc(C(F)(F)F)cc1', '%', 85.2),
  ('c1ccc2c(CN3CCNCC3)cccc2c1', '%', 106),
  ('O=c1oc2cc(O)ccc2s1', '%', 107),
  ('CCc1nc(N)nc(N)c1-c1ccc(Cl)cc1', '%', 92.8),
  ('O=C1\C=C(OC2=C(C=CC=C12)C3=CC=CC4=C3SC5=C4C=CC=C5)\N6CCOCC6', '%', 128),
  ('CCC(=O)N1CCN(CC1)C2=C(C=C(C=C2)N3C(=O)\C=C/C4=C3C5=CC(=CC=C5N=C4)C6=CN=C7C=CC=CC7=C6)C(F)(F)F', '%', 90.8),
  ('CCC[C@H](Nc1nc(-c2ccc(NC(=O)NCC)c(OC)c2)ncc1C)c1cccnc1', '%', 126),
  ('OC[C@H]1OC(O)C[C@@H](O)[C@@H]1O (some centres undefined)', '%', 125),
  ('C#CCC(Cc1cnc2nc(N)nc(N)c2n1)c1ccc(C(=O)N[C@@H](CCC(=O)O)C(=O)O)cc1 (some centres undefined)', '%', 128),
  ('COc1cccc(N(C)C(=S)Oc2ccc3c(c2)CCCC3)n1', '%', 89.1),
  ('CCN(CC)CCCC(C)Nc1ccnc2cc(Cl)ccc12 (centres undefined)', '%', 115),
  ('NC[C@H](O)c1ccc(O)c(O)c1', '%', 104),
  ('O=C(NOCC1CC1)c1ccc(F)c(F)c1Nc1ccc(I)cc1Cl', '%', 115),
  ('O=C(O)c1cccc(-c2noc(-c3ccccc3F)n2)c1', '%', 133),
  ('Cc1ccc(C(=O)Nc2ccc([S+](=O)([O-])O)c3cc([S+](=O)([O-])O)cc([S+](=O)([O-])O)c23)cc1NC(=O)c1cccc(NC(=O)Nc2cccc(C(=O)Nc3cc(C(=O)Nc4ccc([S+](=O)([O-])O)c5cc([S+](=O)([O-])O)cc([S+](=O)([O-])O)c45)ccc3C)c2)c1', '%', 90.1);
